Listing of entries alongside the reported Emax.
- Target desc: recombinant human Meningioma Expressed Antigen 5 (MGEA5), also referred to as O-GlcNAcase (OGA) (Homo sapiens, UniProt O60502)
- Construct: Full length OGA enzyme was purchased at OriGene (cat # TP322411); purchased OriGene TP322411
- Sequence (O60502 1-916): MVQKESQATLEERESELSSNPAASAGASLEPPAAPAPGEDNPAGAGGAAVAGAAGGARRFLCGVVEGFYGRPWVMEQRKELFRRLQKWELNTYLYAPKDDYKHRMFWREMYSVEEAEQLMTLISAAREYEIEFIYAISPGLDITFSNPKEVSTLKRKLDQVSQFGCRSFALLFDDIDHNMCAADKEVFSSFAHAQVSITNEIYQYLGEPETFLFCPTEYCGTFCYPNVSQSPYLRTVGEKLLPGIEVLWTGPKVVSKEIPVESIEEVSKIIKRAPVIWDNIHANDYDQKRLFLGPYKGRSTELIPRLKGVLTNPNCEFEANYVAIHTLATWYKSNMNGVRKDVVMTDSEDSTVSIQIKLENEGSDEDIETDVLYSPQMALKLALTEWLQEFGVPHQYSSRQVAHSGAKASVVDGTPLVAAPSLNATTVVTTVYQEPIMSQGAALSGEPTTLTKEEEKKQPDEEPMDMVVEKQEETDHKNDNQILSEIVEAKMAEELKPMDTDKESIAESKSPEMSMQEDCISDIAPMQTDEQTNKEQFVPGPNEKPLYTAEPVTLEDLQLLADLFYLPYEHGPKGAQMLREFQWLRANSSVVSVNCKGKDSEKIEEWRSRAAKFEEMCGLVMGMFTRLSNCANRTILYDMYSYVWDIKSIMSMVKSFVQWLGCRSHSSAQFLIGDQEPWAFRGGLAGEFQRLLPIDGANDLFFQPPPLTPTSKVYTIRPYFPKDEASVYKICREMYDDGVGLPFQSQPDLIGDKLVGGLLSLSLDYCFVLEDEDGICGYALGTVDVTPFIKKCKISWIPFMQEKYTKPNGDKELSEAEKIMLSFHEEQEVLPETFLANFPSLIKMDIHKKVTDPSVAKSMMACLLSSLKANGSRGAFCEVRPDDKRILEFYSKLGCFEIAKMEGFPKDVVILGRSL
- Protocol notes: OGA biochemical assay: inhibition of FM-GlcNAc hydrolysis, fluorescence; protocol A (10 nM OGA, 1 h) or protocol B (2 nM OGA, 6 h)
- Study conditions: Enzymatic protocol B (2 nM OGA, 6 h)
Only the number, expressed in %, is required.

For orientation, consider the following solved cases.
>  <Molecule>
COc1nc(C)ccc1C[C@H]1CCCN(Cc2cnc(NC(C)=O)s2)C1

>  <Uom>
%

>  <Emax>
100

$$$$
>  <Molecule>
Cc1cc(O[C@@H]2CCCN(C(C)c3ccc4nccnc4c3)C2)cc(C)n1 (mixture of isomers)

>  <Uom>
%

>  <Emax>
100

$$$$

# Emax lookup, item `CC(=O)Nc1ncc(CN2CC[C@H](Cc3ncccc3C#N)C2)s1` 101

# iterate: CC(=O)Nc1ncc(CN2CCCC(OCc3cc(C)nc(C)c3)C2)s1 (centres unmarked) 101

---

Listing of entries alongside the reported Enzymatic hOGA; pIC50.
- Target desc: recombinant human Meningioma Expressed Antigen 5 (MGEA5), also referred to as O-GlcNAcase (OGA) (Homo sapiens)
- Construct: Full length OGA enzyme was purchased at OriGene (cat # TP322411); purchased OriGene TP322411
- Protocol notes: OGA biochemical assay: inhibition of FM-GlcNAc hydrolysis, fluorescence; protocol A (10 nM OGA, 1 h) or protocol B (2 nM OGA, 6 h)
- Study conditions: Enzymatic protocol B (2 nM OGA, 6 h)
Just the number, please, no unit attached.

>  <Molecule>
CCc1cc(C[C@H]2CCN(Cc3cnc(NC(C)=O)s3)C2)cc(C)n1.Cl

>  <Enzymatic hOGA; pIC50>
8.24

$$$$
>  <Molecule>
CC(=O)Nc1ncc(CN2CC[C@H](Cc3cc(C)nc(C(F)(F)F)c3)C2)s1

>  <Enzymatic hOGA; pIC50>
7.59

$$$$
>  <Molecule>
CC(=O)Nc1ncc(CN2CC[C@H](Cc3ccnc(C)c3)C2)s1

>  <Enzymatic hOGA; pIC50>
7.90

$$$$
>  <Molecule>
CC(=O)Nc1ncc(CN2CC[C@H](Cc3ccncc3C)C2)s1

>  <Enzymatic hOGA; pIC50>
8.01

$$$$
>  <Molecule>
CC(=O)Nc1ncc(CN2CCC(Cc3cnc(C#N)cn3)C2)s1 (stereo not drawn)

>  <Enzymatic hOGA; pIC50>
8.21

$$$$

# Enzymatic hOGA; pIC50 lookup, item Cc1cc(CC2CCN(C(C)c3ccc4c(c3)OCCO4)C2)cc(C)n1.Cl.Cl (mixture of isomers) 6.81

# iterate: CC(=O)Nc1ncc(CN2CCC(Cc3ccc(C)nn3)C2)s1 (stereo not drawn) 7.77

# iterate: CC(=O)Nc1ncc(CN2CCC(Cc3ncc(F)cc3F)C2)s1 (stereo not drawn) 7.63

# iterate: `CC(=O)Nc1ncc(CN2CC[C@H](Cc3cnc(C)nc3)C2)s1` 7.93

---

- Target desc: recombinant human Meningioma Expressed Antigen 5 (MGEA5), also referred to as O-GlcNAcase (OGA) (Homo sapiens, UniProt O60502)
- Construct: Full length OGA enzyme was purchased at OriGene (cat # TP322411); purchased OriGene TP322411
- Protocol notes: OGA biochemical assay: inhibition of FM-GlcNAc hydrolysis, fluorescence; protocol A (10 nM OGA, 1 h) or protocol B (2 nM OGA, 6 h)
- Study conditions: Enzymatic protocol B (2 nM OGA, 6 h); read-out: Enzymatic hOGA; pIC50 (converted)
Listing of entries alongside the reported IC50.
Only the number, expressed in nM, is required.

# IC50 lookup, item CC(=O)Nc1ncc(CN2CCC(Cc3cc(C)nc(C)c3)C2)s1 (centres unmarked) 4.68

# iterate: CC(=O)Nc1ncc(CN2CCC[C@H](Cc3cc(C)nc(C)n3)C2)s1 (single isomer, unassigned) 1.82

# iterate: CC(=O)Nc1ncc(CN2CCC(Cc3cncc(C)n3)C2)s1 (centres unmarked) 33.1

# iterate: CC(=O)Nc1ncc(CN2CCCC(c3ccnc(C)c3)C2)s1 (centres unmarked) 27.5

# iterate: CC(=O)Nc1ncc(CN2C[C@@H](Cc3cc(C)nc(C)c3)CC[C@H]2C)s1 (racemic) 2.63

# iterate: `CC(=O)Nc1ncc(CN2CC[C@H](Cc3nnc(C)cc3C)C2)s1` 40.7

# iterate: Cc1cc(N[C@@H]2CCCN(C(C)c3ccc4nccnc4c3)C2)cc(C)n1 (some centres unmarked) 25.7

# iterate: CC(=O)Nc1ncc(CN2CCCC(COc3cc(C)nc(C)c3)C2)[nH]1 (centres unmarked) [compound 120] 1230

# iterate: `CC(=O)Nc1ncc(CN2CCC[C@@H](COc3cc(C)nc(C)c3)C2)s1` 15.1

# iterate: `CCOc1cc(C[C@H]2CCN(Cc3cnc(NC(C)=O)s3)C2)cc(C)n1` 8.51

# iterate: Cc1cc(O[C@@H]2CCCN(C(C)c3ccc4nccnc4c3)C2)cc(C)n1 (mixture of isomers) 6.92

# iterate: `CC(=O)Nc1ncc(CN2CCC[C@H](Cc3cncc(C)n3)C2)s1` 2.88

# iterate: `CC(=O)Nc1ncc(CN2CC[C@H](Cc3ccnc(C)c3C)C2)s1` 7.94

# iterate: `CC(=O)Nc1ncc(CN2CC[C@H](Cc3cnc(C)c(C)c3)C2)s1` 3.09

---

- Target desc: recombinant human Meningioma Expressed Antigen 5 (MGEA5), also referred to as O-GlcNAcase (OGA) (Homo sapiens)
- Construct: Full length OGA enzyme was purchased at OriGene (cat # TP322411); purchased OriGene TP322411
- Protocol notes: OGA biochemical assay: inhibition of FM-GlcNAc hydrolysis, fluorescence; protocol A (10 nM OGA, 1 h) or protocol B (2 nM OGA, 6 h)
- Study conditions: Enzymatic protocol B (2 nM OGA, 6 h)
Observation type: Emax (%)
Only the number, expressed in %, is required.

>  <Compound>
CC(=O)Nc1ncc(CN2CCC[C@H](Oc3cc(C)nc(C)c3)C2)s1

>  <Uom>
%

>  <Emax>
101

$$$$

# Emax lookup, item `CCOc1cc(C[C@H]2CCN(Cc3cnc(NC(C)=O)s3)C2)cc(C)n1` 99.6

# iterate: CC(=O)Nc1ncc(CN2CC(COc3cc(C)nc(C)n3)CC(F)(F)C2)s1 (stereo not shown) 48

# iterate: Cc1cc(C[C@H]2CCN(C(C)c3nc4ccccc4[nH]3)C2)cc(C)n1 (mixture of isomers) 8.78

---

Listing of entries alongside the reported melting point.
Where a name gives a salt, the structure may show the parent alone.
Only the number, expressed in °C, is required.

For orientation, consider the following solved cases.
>  <Compound>
CC(=O)Nc1ncc(CN2CCC(Cc3nccc(C)c3F)C2)s1 (centres unmarked)

>  <melting point (°C)>
129.25

$$$$
>  <Compound>
Cc1cc(CC2CCCN(C(C)c3ccc4sc(C)nc4c3)C2)cc(C)n1 (single isomer, unassigned) (as salt: HCl)

>  <melting point (°C)>
270.1

$$$$
>  <Compound>
CC(=O)Nc1ncc(CN2CCC(Cc3cc(F)ncc3C)C2)s1 (centres unmarked)

>  <melting point (°C)>
140.36

$$$$

# melting point lookup, item CC(=O)Nc1ncc(CN2CCC(Cc3cncc(C)n3)C2)s1 (centres unmarked) 118.3

# iterate: CC(=O)Nc1ncc(CN2CCC(Cc3ncccc3F)C2)s1 (centres unmarked) 150.08

# iterate: CC(=O)Nc1ncc(CN2CCC(Cc3ccc(C)c(C)n3)C2)s1 (centres unmarked) 107.53

# iterate: Cc1cc(CC2CCCN(C(C)c3ccc4c(c3)OCCO4)C2)cc(C)n1 (racemic) (as salt: HCl) 256.05

# iterate: CC(=O)Nc1ncc(CN2CCC(COc3cc(C)nc(C)c3)C2)s1 (racemic) 125.9

The measured values listed here are drawn from patent US20200079766A1.
